From: patent US12479831B2

- System: IFNα-Induced STAT Phosphorylation in Human Whole Blood
- protocol: IFNα-Induced STAT Phosphorylation in Human Whole Blood
- Assay type: cell-based
- measurement context: 1 h incubation with compound, 1000 U/mL recombinant human IFNα A/D for 15 min, pSTAT5 (pY694) median fluorescence intensity in CD3 positive population, read-out: hWB IC50
measured quantity: IC50 (nM)

Guide cases for IC50, answers given:
compound	IC50 / nM
[2H]C([2H])([2H])NC(=O)c1nnc(NC(=O)C2CC2)cc1Nc1cc(F)cc(-c2ncc(C(C)(O)CF)cn2)c1OC (stereo not drawn) [Example 32]	71
[2H]C([2H])([2H])NC(=O)c1nnc(Nc2cc(C(C)(C)O)n(C)n2)cc1Nc1cccc(-c2ncccn2)c1OC [Example 81]	14

[P] [2H]C([2H])([2H])NC(=O)c1nnc(Nc2ccc(C#N)nn2)cc1Nc1cccc(-c2ncc(F)cn2)c1OC [Example 95]
[Q] [2H]C([2H])([2H])NC(=O)c1nnc(NC(=O)C2CC2)cc1Nc1cccc(-c2ncc(C(=O)N(C)C3CC3)cn2)c1OC [Example 52]
Please compare: P and Q . Report which one has the smaller IC50 value. Refer to your chosen item by its label in the answer.
Q
(Q: 50 nM, P: 182 nM)

[I] [2H]C([2H])([2H])NC(=O)c1cnc(Nc2cc(C(F)(F)F)n(C)n2)cc1Nc1cccc(-c2ncc(F)cn2)c1OC [Example 64]
[II] [2H]C([2H])([2H])NC(=O)c1nnc(Nc2cn(CC)nn2)cc1Nc1cccc(-c2ncc(F)cn2)c1OC [Example 89]
[III] [2H]C([2H])([2H])NC(=O)c1nnc(NC(=O)C2CC2)cc1Nc1cccc(-c2ncc(C#N)cn2)c1OC [Example 2]
Number of compounds to sort: 3. Sort criterion: IC50, ascending. Form field (ranking): labels in requested order.
I, II, III

[a] [2H]C([2H])([2H])NC(=O)c1nnc(NC(=O)C2CC2)cc1Nc1cc(F)cc(-c2ccc(C(=O)N(C)C)nn2)c1OC [Example 42]
[b] [2H]C([2H])([2H])NC(=O)c1nnc(Nc2cc(C#N)n(C)n2)cc1Nc1cccc(-c2ncccn2)c1OC [Example 80]
# argmax over IC50 for candidates a and b Mark your selection by writing its label.
b
(b: 80 nM, a: 56 nM)

---

- Tested on: IFNα-Induced STAT Phosphorylation in Human Whole Blood
- protocol: IFNα-Induced STAT Phosphorylation in Human Whole Blood
- Format: cell-based
- measurement context: 1 h incubation with compound, 1000 U/mL recombinant human IFNα A/D for 15 min, pSTAT5 (pY694) median fluorescence intensity in CD3 positive population, read-out: hWB IC50
measured quantity: IC50 (nM)

compound	experimental target	measured result
[2H]C([2H])([2H])NC(=O)c1nnc(NC(=O)C2CC2)cc1Nc1cccc(-c2ncc(S(C)(=O)=O)cn2)c1OC [Example 111]	IFNα-Induced STAT Phosphorylation in Human Whole Blood	216

[a] [2H]C([2H])([2H])NC(=O)c1nnc(NC(=O)C2CC2)cc1Nc1cccc(-c2ncc(C3(O)CCOC3)cn2)c1OC (stereo not shown) [Example 31]
[b] [2H]C([2H])([2H])NC(=O)c1nnc(Nc2cnn(CC)n2)cc1Nc1cccc(-c2ncc(F)cn2)c1OC [Example 87]
[c] [2H]C([2H])([2H])NC(=O)c1nnc(Nc2ccc(OC)nn2)cc1Nc1cccc(-c2ncccn2)c1OC [Example 96]
// ranking: key=IC50, reverse=True Provide the ranking by listing each label in its place in the requested order.
b, c, a

[1] [2H]C([2H])([2H])NC(=O)c1nnc(Nc2cnc(C(C)(C)O)cn2)cc1Nc1cccc(-c2ncc(F)cn2)c1OC [Example 101]
[2] [2H]C([2H])([2H])NC(=O)c1nnc(NC(=O)C2CC2)cc1Nc1cccc(-c2cc(=O)n(C)cn2)c1OC [Example 12]
Returns: the argument ( 1 or 2 ) having the larger IC50. Write down the label of the entry you select.
2

---

- System: IFNα-Induced STAT Phosphorylation in Human Whole Blood
- protocol: IFNα-Induced STAT Phosphorylation in Human Whole Blood
- Type: cell-based
- measurement context: 1 h incubation with compound, 1000 U/mL recombinant human IFNα A/D for 15 min, pSTAT5 (pY694) median fluorescence intensity in CD3 positive population, read-out: hWB IC50
pIC50: −log10 of the molar value.
measured quantity: pIC50

molecule	measured result
[2H]C([2H])([2H])NC(=O)c1nnc(Nc2ccc(C)nn2)cc1Nc1cccc(-c2ncc(F)cn2)c1OC	7.42

[a] [2H]C([2H])([2H])NC(=O)c1nnc(NC(=O)C2CC2)cc1Nc1cccc(-c2ncc(N3CCOC3=O)cn2)c1OC
[b] [2H]C([2H])([2H])NC(=O)c1nnc(Nc2ccc(C3CC3)nn2)cc1Nc1cccc(-c2ncc(F)cn2)c1OC
[c] [2H]C([2H])([2H])NC(=O)c1nnc(NC(=O)C2CC2)cc1Nc1cc(F)cc(-c2cnc(C(C)O)cn2)c1OC (stereo not shown)
// sort entries: pIC50, high to low Please, when replying, give the labels in the order that was requested.
a, b, c
(a: 7.44, b: 7.15, c: 6.78)

---

- Test system: IFNα-Induced STAT Phosphorylation in Human Whole Blood
- protocol: IFNα-Induced STAT Phosphorylation in Human Whole Blood
- Type: cell-based
- measurement context: 1 h incubation with compound, 1000 U/mL recombinant human IFNα A/D for 15 min, pSTAT5 (pY694) median fluorescence intensity in CD3 positive population, read-out: hWB IC50
pIC50: −log10 of the molar value.
measured quantity: pIC50

Some solved cases for reference:
compound	experimental target	pIC50
[2H]C([2H])([2H])NC(=O)c1nnc(NC(=O)C2CC2)cc1Nc1cccc(-c2ncc(C(O)(CF)CF)cn2)c1OC	IFNα-Induced STAT Phosphorylation in Human Whole Blood	7.41
[2H]C([2H])([2H])NC(=O)c1cnc(Nc2ccc(OC)nn2)cc1Nc1cccc(-c2ncc(F)cn2)c1OC	IFNα-Induced STAT Phosphorylation in Human Whole Blood	7.06
[2H]C([2H])([2H])NC(=O)c1nnc(Nc2cn(C)nn2)cc1Nc1cc(F)cc(-c2ncccn2)c1OC	IFNα-Induced STAT Phosphorylation in Human Whole Blood	6.38

[P] [2H]C([2H])([2H])NC(=O)c1cnc(Nc2ccc(C(F)(F)F)nn2)cc1Nc1cccc(-c2ncccn2)c1OC
[Q] [2H]C([2H])([2H])NC(=O)c1nnc(Nc2ccn(C3CC3)n2)cc1Nc1cccc(-c2ncc(F)cn2)c1OC
Between P and Q , which one shows the larger pIC50 value? Provide the label of your selected option as the answer.
P

[a] [2H]C([2H])([2H])NC(=O)c1cnc(Nc2cnc(C#N)cn2)cc1Nc1cccc(-c2ncc(F)cn2)c1OC
[b] [2H]C([2H])([2H])NC(=O)c1nnc(NC(=O)C2CC2)cc1Nc1cccc(-c2ncc(C3(O)CCC3)cn2)c1OC
[c] [2H]C([2H])([2H])NC(=O)c1cnc(NC(=O)C2CC2)cc1Nc1cccc(-c2ncc(F)cc2C#N)c1OC
[d] [2H]C([2H])([2H])NC(=O)c1nnc(NC(=O)C2CC2)cc1Nc1cccc(-c2nccc(C#N)n2)c1OC
Put the entries in order of pIC50, starting with the largest number. Answer by writing out the labels in the requested order.
b, d, a, c
(b: 7.20, d: 6.84, a: 6.56, c: 6.17)

[P] [2H]C([2H])([2H])NC(=O)c1cnc(Nc2ccn(C)n2)cc1Nc1cccc(-c2ncc(F)cn2)c1OC
[Q] [2H]C([2H])([2H])NC(=O)c1nnc(NC(=O)C2CC2)cc1Nc1cccc(-c2ccc(=O)n(C)n2)c1OC
[R] [2H]C([2H])([2H])NC(=O)c1nnc(NC(=O)C2CC2)cc1Nc1cccc(-c2ccc(C(C)(O)CC)nn2)c1OC (stereo not drawn)
[S] [2H]C([2H])([2H])NC(=O)c1nnc(NC(=O)C2CCC2)cc1Nc1cccc(-c2ncccn2)c1OC
Please order the records by their reported pIC50, lowest number first. Answer by listing the labels in the order asked for.
S, Q, P, R

[1] [2H]C([2H])([2H])NC(=O)c1cnc(NC(=O)C2CC2)cc1Nc1cccc(-c2ncc(N3CCOCC3)cn2)c1OC
[2] [2H]C([2H])([2H])NC(=O)c1nnc(NC(=O)C2CC2)cc1Nc1cccc(-c2cnc(N(C)C(C)=O)cn2)c1OC
Would you mind telling me which has the lower recorded pIC50 between 1 and 2 ? Indicate your choice by writing its label.
2
(2: 6.93, 1: 7.27)

---

- Test system: IFNα-Induced STAT Phosphorylation in Human Whole Blood
- protocol: IFNα-Induced STAT Phosphorylation in Human Whole Blood
- Assay type: cell-based
- measurement context: 1 h incubation with compound, 1000 U/mL recombinant human IFNα A/D for 15 min, pSTAT5 (pY694) median fluorescence intensity in CD3 positive population, read-out: hWB IC50
- Description: IFNα-Induced STAT Phosphorylation in Human Whole Blood After an hour long incubation with compound, human whole blood (drawn with either EDTA or ACD-A as anti-coagulant) was stimulated with 1000 U/mL recombinant human IFNα A/D (R&D Systems 11200-2) for 15 min. The stimulation was stopped by adding Fix/Lyse buffer (BD 558049). […] The amount of pSTAT5 expression was quantitated by median fluorescence intensity after gating on the CD3 positive population. […]
measured quantity: IC50 (nM)

Before answering, review these 2 worked examples.
compound	measured result
[2H]C([2H])([2H])NC(=O)c1nnc(Nc2cc3n(n2)CCN(C)C3=O)cc1Nc1cccc(-c2ncc(F)cn2)c1OC	81
[2H]C([2H])([2H])NC(=O)c1nnc(Nc2ccc(C(C)(C)O)cn2)cc1Nc1cccc(-c2ncc(F)cn2)c1OC	79

[I] [2H]C([2H])([2H])NC(=O)c1cnc(Nc2cc(Cl)n(C)n2)cc1Nc1cccc(-c2ncc(F)cn2)c1OC
[II] [2H]C([2H])([2H])NC(=O)c1nnc(NC(=O)C2CC2)cc1Nc1cccc(-c2ncc(C(=O)N(C)CC)cn2)c1OC
[III] [2H]C([2H])([2H])NC(=O)c1nnc(NC(=O)C2CC2)cc1Nc1cccc(-c2ccc(S(C)(=O)=O)cn2)c1OC
[IV] [2H]C([2H])([2H])NC(=O)c1nnc(NC(=O)C2CC2)cc1Nc1cccc(-c2nccc(C(=O)N(C)C)n2)c1OC
Ascending sort, IC50. Put the labels in the requested order and write them down.
II, I, IV, III
(II: 41 nM, I: 146 nM, IV: 327 nM, III: 480 nM)

[P] [2H]C([2H])([2H])NC(=O)c1nnc(Nc2cc3n(n2)CCN(C)C3=O)cc1Nc1cccc(-c2ncccn2)c1OC
[Q] [2H]C([2H])([2H])NC(=O)c1nnc(NC(=O)C2CC2)cc1Nc1cccc(-c2cnc(C(=O)N3CCC3)cn2)c1OC
For the two items P and Q , which reports the higher IC50 value? // caller expects the label of the chosen entry
Q
